biological target: Sentrin-specific protease 8 (Homo sapiens) (UniProt Q96LD8); assay: blockers of human SENP8 peptidase activity – biochemical, luminescence, primary screen (AID 2540); conditions: purified SENP8, Z-RLRGG-aminoluciferin cleavage, at 10 µM, active compounds read high
Sequence (Q96LD8 whole entry, looked up): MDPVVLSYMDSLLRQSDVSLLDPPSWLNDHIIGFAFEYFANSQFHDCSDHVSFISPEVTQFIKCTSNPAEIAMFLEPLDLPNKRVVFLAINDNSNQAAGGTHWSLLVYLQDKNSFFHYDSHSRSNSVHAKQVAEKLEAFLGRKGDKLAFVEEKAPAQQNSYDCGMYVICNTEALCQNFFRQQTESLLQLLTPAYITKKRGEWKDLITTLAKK
Among all 330,000 compounds or so, about 4,100 (1.2%) were called active. Many of the other results were omitted from the sample, so actives are more common in it than they were.
The reader will find reported inhibition values listed item by item below.
READOUT_NAME: inhibition (%)

CN(Cc1c(F)cccc1Cl)C(=O)CNC(=O)c1ccc2c(c1)OCO2 = -2.64
O=C(Nc1nc2ccccc2s1)c1ccc2c(c1)OCO2 = 94.1
CCCNC(=O)COc1coc(CN2CCN(Cc3ccccc3)CC2)cc1=O = -2.92
COCc1nnc(NC(=O)c2ccc3c(c2)OCO3)s1 = 0.871
Cc1ccc(C)c(NC(=O)CN(C)C(=O)c2ccc3ncsc3c2)c1 = -13.6
O=S1(=O)CC/C(=N\Nc2ccc(F)cc2)c2ccsc21 = -11.5
CNC(=O)c1sc(NCc2ccccc2OC)nc1C = 0.124
CC(OC(=O)c1ccc(NS(=O)(=O)c2ccc3[nH]c(=O)[nH]c3c2)cc1)C(=O)Nc1cccc(Cl)c1Cl (stereo not drawn) = -9.53
N#Cc1ccccc1NC(=O)c1ccc2c(c1)OCO2 = 0.633
COc1ccc(OCC(=O)NCCS(=O)(=O)N2CCN(c3ccc(F)cc3)CC2)cc1 = 1.89
Cc1ccc(CS(=O)Cc2ccc(C(=O)N3CCOCC3)o2)cc1 (stereo not drawn) = -6.99
N#CCCN(C(=O)COC(=O)c1ccc2c(c1)OCCO2)c1ccccc1 = 10
O=C(OCc1ccccc1F)c1ccc2c(c1)OCCO2 = 80.2
COc1cc(C(=O)NCC2(c3ccccc3)CCCC2)ccc1OC(C)C = 1.28
COC(=O)c1ccc(C)c(NC(=O)C2CC(=O)N(C3CCCC(C)C3C)C2)c1 (stereo not drawn) = -6.55
COc1ccc(C(=O)Nc2ccc3nc(N4CCCCC4)cc(C)c3c2)cc1OC = 1.68
COc1ccc(C(=O)Nc2ccc3c(c2)OCO3)cc1OC = 77.5
Cc1cc(C)nc(NC(=O)c2cccc([N+](=O)[O-])c2)c1 = -2.37
CNS(=O)(=O)c1cccc(C(=O)OCC(=O)N2c3ccccc3NC(=O)C2(C)C)c1 = -16.6
COc1ccc(-c2sc3ccccc3c2-c2ccc(OCCN3CCOCC3)cc2)cc1 = 8
O=[N+]([O-])c1c(NCCO)cc(Sc2nc3ccccc3s2)c2nonc12 = 85
O=C(COC(=O)c1ccc2c(c1)OCCO2)NCc1ccccc1Cl = -14.4
Cc1csc(SCC(=O)Nc2sccc2C#N)n1 = 92.7

====

biological target: Sentrin-specific protease 8 (Homo sapiens) (UniProt Q96LD8); assay: blockers of human SENP8 peptidase activity – biochemical, luminescence, primary screen (AID 2540); details: purified SENP8, Z-RLRGG-aminoluciferin cleavage, at 10 µM
Hit rate of the full screen: of about 330,000 compounds, about 4,100 (1.2%) were called active. Cut-off read from the data, not from the text of the source: active = inhibition above about 50%; inactive = the rest. For the sample, actives were picked, then their nearest neighbours and some compounds at random.
Classes used: active, inactive

CCC(C)c1ccc(NC(=S)N2CCCC2)cc1 (stereo unspecified) = inactive
O=C(NCCc1ccco1)C(=O)NCCC1CCCCN1S(=O)(=O)c1ccccc1 (stereo unspecified) = inactive
Cc1ccc(Nc2nc(Cl)c(C=O)s2)cc1 = active
O=C(COC(=O)c1ncc(Cl)c(Cl)c1Cl)NC1CCS(=O)(=O)C1 (stereo unspecified) = inactive
Cc1ccc(NC(=O)Nc2nnc(-c3ccncc3)s2)cc1 = inactive
CCN(CC)CCOc1ccc2c(c1)C(=NNC(=O)c1ccccn1)c1cc(OCCN(CC)CC)ccc1-2 = inactive
